assay: activity coefficient (dimensionless); of the first substance listed, at infinite dilution; xn = mol fraction of the nth substance listed; settings: 388.15 K; 101 kPa; Liquid; Chromatography; x1 = 0

Molecule: CCCC(=O)OC [methyl butanoate] + CCCCn1cc[n+](C)c1.COP(=O)([O-])OC
activity coefficient: 5.39

Molecule: C#CCCCCC [1-heptyne] + CCCCn1cc[n+](C)c1.CS(=O)(=O)[O-]
activity coefficient: 14.1

Molecule: CCC(=O)CC [pentan-3-one] + CCCCn1cc[n+](C)c1.CS(=O)(=O)[O-]
activity coefficient: 5.09

Molecule: CCC(C)(C)OC [2-methoxy-2-methylbutane] + CCCCn1cc[n+](C)c1.COP(=O)([O-])OC
activity coefficient: 9.75

Molecule: C=Cc1ccccc1 [styrene] + CCCCn1cc[n+](C)c1.[Cl-]
activity coefficient: 5.73

Molecule: C1COCCO1 [1,4-dioxane] + CCCCn1cc[n+](C)c1.COP(=O)([O-])OC
activity coefficient: 2.37

Molecule: C#CCCC [1-pentyne] + CCCCn1cc[n+](C)c1.[Cl-]
activity coefficient: 5.78

Molecule: Cc1cccc(C)c1 [1,3-dimethylbenzene] + CCCCn1cc[n+](C)c1.CS(=O)(=O)[O-]
activity coefficient: 9.92

Molecule: Cc1ccc(C)cc1 [1,4-dimethylbenzene] + CCCCn1cc[n+](C)c1.[Cl-]
activity coefficient: 14.3

Molecule: CCOCC [diethyl ether] + CCCCn1cc[n+](C)c1.CS(=O)(=O)[O-]
activity coefficient: 15.3

Molecule: Cc1ccccc1 [toluene] + CCCCn1cc[n+](C)c1.CS(=O)(=O)[O-]
activity coefficient: 5.84

Molecule: CCCOCCC [dipropyl ether] + CCCCn1cc[n+](C)c1.COP(=O)([O-])OC
activity coefficient: 13.4

Molecule: C=CCCCCC [1-heptene] + CCCCn1cc[n+](C)c1.COP(=O)([O-])OC
activity coefficient: 18.9

Molecule: CCC(=O)OC [methyl propanoate] + CCCCn1cc[n+](C)c1.CS(=O)(=O)[O-]
activity coefficient: 4.9

Molecule: CCOC(C)(C)C [2-ethoxy-2-methylpropane] + CCCCn1cc[n+](C)c1.[Cl-]
activity coefficient: 53.3

Molecule: CCCC=O [butanal] + CCCCn1cc[n+](C)c1.COP(=O)([O-])OC
activity coefficient: 2.97

Molecule: CC(C)OC(C)C [diisopropyl ether] + CCCCn1cc[n+](C)c1.CS(=O)(=O)[O-]
activity coefficient: 41.2

Molecule: C=CCCCC [hex-1-ene] + CCCCn1cc[n+](C)c1.CS(=O)(=O)[O-]
activity coefficient: 40.3
